test.system: T1, CXCL1_HUMAN (human, UniProt P09341 35-107)
T1 sequence: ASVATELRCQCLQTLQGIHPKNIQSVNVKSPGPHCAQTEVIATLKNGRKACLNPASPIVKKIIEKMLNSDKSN
assay.overview: BLI
pKd: −log10 of the molar value.

binder | pKd
P943_IXORI (other) RSKQPTASQSSKNSIKAEFCDTNCTQGTNGAWSGCSEGCFCVHVGNNTKGRCMKLSSDYDYTTQ | 6.27
